All figures here come from ChEMBL document CHEMBL5325470.

test system: HCT-116; experiment: Antiproliferative activity against human HCT-116 cells incubated for 72 hrs by MTT assay; type: functional, cell-based; settings: HCT-116, 72 h
Parameter: IC50. Scope: all listed entries.
reportedProperty: IC50 (µM)

molsmiles=Cc1cc(C)c(CNC(=O)c2cc(-c3ccc(N4CCN(C(C)C)CC4)nc3)cc3c2cnn3C(C)C)c(=O)[nH]1 comparisonsign== measured=16.9
molsmiles=Cc1cc(C)c(CNC(=O)c2cc(NCCCCNC(=O)C[C@@H]3N=C(c4ccc(Cl)cc4)c4c(sc(C)c4C)-n4c(C)nnc43)cc3c2cnn3C(C)C)c(=O)[nH]1 comparisonsign== measured=10.2
molsmiles=Cc1cc(C)c(CNC(=O)c2cc(-c3ccc(NC(=O)CCNC(=O)C[C@@H]4N=C(c5ccc(Cl)cc5)c5c(sc(C)c5C)-n5c(C)nnc54)cc3)cc3c2cnn3C(C)C)c(=O)[nH]1 comparisonsign=> measured=20
molsmiles=CC[C@@H](C)n1cc(C)c2c(C(=O)NCc3c(C)cc(C)[nH]c3=O)cc(-c3ccc(N4CCNCC4)nc3)cc21 comparisonsign== measured=12.9

---

assay: Binding affinity to recombinant PRC2 complex (unknown origin) incubated for 3 hrs in presence of SAM; set-up: species or system Homo sapiens
pKd: −log10 of the molar value.
reportedProperty: pKd

molsmiles=CC[C@@H](C)n1cc(C)c2c(C(=O)NCc3c(C)cc(C)[nH]c3=O)cc(-c3ccc(N4CCNCC4)nc3)cc21 measured=7.05
molsmiles=Cc1cc(C)c(CNC(=O)c2cc(N3CCC(CNC(=O)C[C@@H]4N=C(c5ccc(Cl)cc5)c5c(sc(C)c5C)-n5c(C)nnc54)CC3)cc3c2cnn3C(C)C)c(=O)[nH]1 measured=6.88
molsmiles=Cc1cc(C)c(CNC(=O)c2cc(NCCCCCNC(=O)C[C@@H]3N=C(c4ccc(Cl)cc4)c4c(sc(C)c4C)-n4c(C)nnc43)cc3c2cnn3C(C)C)c(=O)[nH]1 measured=6.74
molsmiles=Cc1cc(C)c(CNC(=O)c2cc(-c3ccc(NC(=O)CCCNC(=O)C[C@@H]4N=C(c5ccc(Cl)cc5)c5c(sc(C)c5C)-n5c(C)nnc54)cc3)cc3c2cnn3C(C)C)c(=O)[nH]1 measured=6.42
molsmiles=Cc1cc(C)c(CNC(=O)c2cc(-c3ccc(NC(=O)CCNC(=O)C[C@@H]4N=C(c5ccc(Cl)cc5)c5c(sc(C)c5C)-n5c(C)nnc54)cc3)cc3c2cnn3C(C)C)c(=O)[nH]1 measured=6.33
molsmiles=Cc1cc(C)c(CNC(=O)c2cc(-c3ccc(NC(=O)CCCCNC(=O)C[C@@H]4N=C(c5ccc(Cl)cc5)c5c(sc(C)c5C)-n5c(C)nnc54)cc3)cc3c2cnn3C(C)C)c(=O)[nH]1 measured=6.17
molsmiles=Cc1cc(C)c(CNC(=O)c2cc(NCCCCCCNC(=O)C[C@@H]3N=C(c4ccc(Cl)cc4)c4c(sc(C)c4C)-n4c(C)nnc43)cc3c2cnn3C(C)C)c(=O)[nH]1 measured=6.72

---

Parameter: IC50. Scope: all listed entries.
tested on: HCT-116; experiment: Antiproliferative activity against human HCT-116 cells incubated for 72 hrs by MTT assay; format: functional, cell-based; conditions: HCT-116, 72 h
reportedProperty: IC50

molsmiles=Cc1cc(C)c(CNC(=O)c2cc(NCC3CCN(C(=O)C[C@@H]4N=C(c5ccc(Cl)cc5)c5c(sc(C)c5C)-n5c(C)nnc54)CC3)cc3c2cnn3C(C)C)c(=O)[nH]1 targetentity=HCT-116 measured="2.18 µM"
molsmiles=CCn1ncc2c(C(=O)NCc3c(C)cc(C)[nH]c3=O)cc(-c3ccc(N4CCN(C(=O)C[C@@H]5N=C(c6ccc(Cl)cc6)c6c(sc(C)c6C)-n6c(C)nnc65)CC4)nc3)cc21 targetentity=HCT-116 measured="6.68 µM"
molsmiles=Cc1cc(C)c(CNC(=O)c2cc(NC3CCN(C(=O)C[C@@H]4N=C(c5ccc(Cl)cc5)c5c(sc(C)c5C)-n5c(C)nnc54)CC3)cc3c2cnn3C(C)C)c(=O)[nH]1 targetentity=HCT-116 measured="4.28 µM"
